Could you please report measured pest or weed control at 80 g/ha for the items listed next?
tested on: VERPE; assay: Pre-emergence herbicidal action against VERPE; format: in vivo, Veronica persica; settings: Veronica persica, 504 h, dosage 80 g/ha

Prompt: Can you look up the measured pest or weed control at 80 g/ha of CCNC(=O)c1c(C(F)F)ccc(C(=O)Nc2nnnn2C)c1SC for me?
Response: 100%

Prompt: Which pest or weed control at 80 g/ha is listed for CCNC(=O)c1c(C(F)(F)F)ccc(C(=O)Nc2nnnn2C)c1Cl ?
Response: 80%

Prompt: I am curious: what pest or weed control at 80 g/ha value has been reported for CSc1c(C(=O)Nc2nnnn2C)ccc(C(F)F)c1C(=O)NC1CC1 ?
Response: 90%

Prompt: pest or weed control at 80 g/ha lookup needed for Cn1nnnc1NC(=O)c1ccc(S(C)(=O)=O)c(C(=O)NC2CC2)c1Cl , thanks.
Response: 80%

Prompt: Consider the compound shown here: CCn1nnnc1NC(=O)c1ccc(C(F)F)c(C(=O)NC2CC2)c1Br What is its recorded pest or weed control at 80 g/ha?
Response: 100%

Prompt: pest or weed control at 80 g/ha for CCCNC(=O)c1c(C(F)F)ccc(C(=O)Nc2nnnn2CC)c1C ?
Response: 80%

Prompt: Requested read-out: pest or weed control at 80 g/ha. Entry: CCn1nnnc1NC(=O)c1ccc(C(F)(F)F)c(C(=O)NC)c1SC
Response: 90%

Prompt: Using the record for CNC(=O)c1c(C(F)F)ccc(C(=O)Nc2nnnn2C)c1Br , report its pest or weed control at 80 g/ha.
Response: 80%

Prompt: Which pest or weed control at 80 g/ha value is on record for CC(C)NC(=O)c1c(C(F)(F)F)ccc(C(=O)Nc2nnnn2C)c1Cl ?
Response: 90%

Prompt: What pest or weed control at 80 g/ha value was documented for this compound, CNC(=O)c1c(C(F)(F)F)ccc(C(=O)Nc2nnnn2C)c1Cl ?
Response: 100%

Prompt: What value of pest or weed control at 80 g/ha has been reported for the following compound? CCNC(=O)c1c(C(F)(F)F)ccc(C(=O)Nc2nnnn2C)c1CC
Response: 90%

Prompt: Reported pest or weed control at 80 g/ha, compound CCNC(=O)c1c(C(F)F)ccc(C(=O)Nc2nnnn2C)c1C : ____
Response: 90%

Prompt: Returns the measured pest or weed control at 80 g/ha for the input compound. Input: CCNC(=O)c1c(I)ccc(C(=O)Nc2nnnn2CC)c1Cl
Response: 80%

Prompt: Item CCNC(=O)c1c(C(F)(F)F)ccc(C(=O)Nc2nnnn2CC)c1C1CC1 has what recorded pest or weed control at 80 g/ha?
Response: 100%

Prompt: Report pest or weed control at 80 g/ha for CSc1c(C(=O)Nc2nnnn2C)ccc(C(F)(F)F)c1C(=O)NC1CC1 please.
Response: 80%

Prompt: Given the entry CCNC(=O)c1c(C(F)F)ccc(C(=O)Nc2nnnn2C)c1C1CC1 , report its measured pest or weed control at 80 g/ha.
Response: 100%

Prompt: So what's the measured pest or weed control at 80 g/ha for this one? CNC(=O)c1c(Cl)ccc(C(=O)Nc2nnnn2C)c1Br
Response: 90%

Prompt: What does the data say about its pest or weed control at 80 g/ha? Entry: CCCNC(=O)c1c(C(F)F)ccc(C(=O)Nc2nnnn2C)c1C
Response: 80%
